Ref: the supplement of paper PMC13380429

System: Vero E6 infected with SARS-CoV-2
Assay: inhibition of SARS-CoV-2 cytopathic effect; higher = more antiviral protection, active = above 15
Details: 10000 nM; 48 h
readout.type: inhibition of SARS-CoV-2 cytopathic effect (%)

{"columns": ["molecule", "unit.abbreviation", "recorded.measurement"],
 "data": [
  ["CCCc1nc(C(C)(C)O)c(C(=O)O)n1Cc1ccc(-c2ccccc2-c2nnn[nH]2)cc1 [olmesartan]", "%", -0.94],
  ["O=C1c2cccc(O)c2C(=O)c2c(O)cc(CO)cc21 [aloe-emodin]", "%", -2.43],
  ["CC(C)c1ccc(NC(=O)Cn2cnc3c2c(=O)n(C)c(=O)n3C)cc1", "%", 3.83],
  ["[O-][n+]1ccccc1[S-].[O-][n+]1ccccc1[S-].[Zn+2] [pyrithione-zinc]", "%", -21.9],
  ["C[C@@H]1O[C@@H](O[C@H]2[C@H](Oc3cc(O)c4c(c3)O[C@H](c3ccc(O)cc3)CC4=O)O[C@H](CO)[C@@H](O)[C@@H]2O)[C@H](O)[C@H](O)[C@H]1O [Naringin (Naringoside)]", "%", 1.71],
  ["C=CC(=O)N1CCN(C(=O)CNc2cc(I)c(Cl)cc2O)CC1 [K-Ras(G12C)-inhibitor-12]", "%", 30.4],
  ["C[N+]1(C)[C@@H]2C[C@@H](OC(=O)C(O)(c3cccs3)c3cccs3)C[C@H]1[C@@H]1O[C@@H]12 [tiotropium]", "%", -3.35],
  ["COc1cc2c(cc1O)CC[C@@H]1[C@@H]2CC[C@]2(C)[C@@H](O)CC[C@@H]12 [2-methoxyestradiol]", "%", -4.59],
  ["FC(F)(F)c1cccc(C2=CCN(CCc3ccc4ccccc4c3)CC2)c1 [xaliproden]", "%", 0.49],
  ["COC(=O)c1c(C)[nH]c(C)c1C(=O)c1ccccc1Cc1ccccc1", "%", -3.09],
  ["CC(C)Nc1nc2cc(Cl)c(Cl)cc2n1[C@H]1O[C@@H](CO)[C@H](O)[C@@H]1O [maribavir]", "%", -2.15],
  ["C[C@H]1CCc2c(cc(Br)c(F)c2Br)N1C=O", "%", -1.25],
  ["CC(C)C[C@@H](N)C1(c2ccc(Cl)cc2)CCC1", "%", -7.34],
  ["O=C(O[C@@H]1Cc2c(O)cc(O)cc2O[C@@H]1c1ccc(O)c(O)c1)c1cc(O)c(O)c(O)c1 [epicatechin-gallate-(-)]", "%", -0.51],
  ["Oc1c(I)cc(I)c2cccnc12 [iodoquinol]", "%", 0.59],
  ["CC(=O)O[C@H]1C[C@@H]2CC[C@@H]3[C@H](CC[C@@]4(C)[C@H]3C[C@H]([N+]3(C)CCCCC3)[C@@H]4OC(C)=O)[C@@]2(C)C[C@@H]1[N+]1(C)CCCCC1 [pancuronium]", "%", -1.28]
]}

====

Test system: Vero E6 infected with SARS-CoV-2
Experiment: inhibition of SARS-CoV-2 cytopathic effect; higher = more antiviral protection, active = above 15
Details: 10000 nM; 48 h
Possible outcomes: active, inactive

{"columns": ["compound", "category.label"],
 "data": [
  ["CC(=O)O[C@H]1Cc2ccccc2N(C(N)=O)c2ccccc21 [eslicarbazepine-acetate]", "inactive"],
  ["CCN(c1ccccc1)c1cc(=NC)n(C)c(C)n1", "inactive"],
  ["CC(C)[C@]12O[C@H]1[C@@H]1O[C@]13[C@]1(O[C@H]1C[C@H]1C4=C(CC[C@@]13C)C(=O)OC4)[C@@H]2O [triptolide]", "inactive"],
  ["Nc1ccc(O)c(C(=O)O)c1", "inactive"],
  ["CO[C@H]1C[C@H](O[C@@H]2/C(C)=C/C[C@@H]3C[C@@H](C[C@]4(CC[C@H](C)[C@@H](C5CCCCC5)O4)O3)OC(=O)[C@@H]3C=C(C)/C(=N/O)[C@H]4OC/C(=C\\C=C\\[C@@H]2C)[C@]43O)O[C@@H](C)[C@@H]1O", "active"],
  ["CC(C)(C)NCC(O)COc1cccc2[nH]c(=O)[nH]c12 (stereo not drawn)", "inactive"],
  ["CN(c1ccc(NC(=O)Nc2ccccc2)cc1)S(=O)(=O)c1cnn(-c2ccc(F)cc2)c1", "inactive"],
  ["O=c1c(-c2ccc(O)cc2)coc2cc(O)ccc12", "inactive"]
]}
